Data provenance: the supplement of paper PMC5752671

- Test system: U937
- TEST_NAME: area under dose-response curve (cell viability) (AUC (arbitrary, % viability x log concentration)); higher = less sensitive (more viable)
- TEST_CONTEXT: 4 days
Rule: yes (1) for area under dose-response curve not less than 600, no (0) for anything less.

In [3]: df
Out[3]:
                                   compound  assay_system    class
0  CCCS(=O)(=O)Nc1ccc(F)c(C(=O)c2c[nH]c3ncc(-c4ccc(Cl)cc4)cc23)c1F          U937  yes (1)
1  Cc1cc(C(C)Nc2ccccc2)c2nc(N3CCOCC3)cc(=O)n2c1 (stereo not drawn)          U937  yes (1)
2  O=C1NC(=O)c2c1c1c3ccccc3n3c1c1c2c2ccccc2n1[C@H]1CC[C@@H]3O1          U937  yes (1)
3  CSCC[C@H](NC(=O)c1ccc(NC[C@@H](N)CS)cc1-c1ccccc1)C(=O)O          U937  yes (1)
4  COc1ccc(-c2ccc3c(N4CCOC[C@@H]4C)nc(N4CCOC[C@@H]4C)nc3n2)cc1CO          U937   no (0)
